# assayed target: α4β1 integrin (Homo sapiens (Human), UniProt P05556+P13612)
# Sequence (P13612 34-1032): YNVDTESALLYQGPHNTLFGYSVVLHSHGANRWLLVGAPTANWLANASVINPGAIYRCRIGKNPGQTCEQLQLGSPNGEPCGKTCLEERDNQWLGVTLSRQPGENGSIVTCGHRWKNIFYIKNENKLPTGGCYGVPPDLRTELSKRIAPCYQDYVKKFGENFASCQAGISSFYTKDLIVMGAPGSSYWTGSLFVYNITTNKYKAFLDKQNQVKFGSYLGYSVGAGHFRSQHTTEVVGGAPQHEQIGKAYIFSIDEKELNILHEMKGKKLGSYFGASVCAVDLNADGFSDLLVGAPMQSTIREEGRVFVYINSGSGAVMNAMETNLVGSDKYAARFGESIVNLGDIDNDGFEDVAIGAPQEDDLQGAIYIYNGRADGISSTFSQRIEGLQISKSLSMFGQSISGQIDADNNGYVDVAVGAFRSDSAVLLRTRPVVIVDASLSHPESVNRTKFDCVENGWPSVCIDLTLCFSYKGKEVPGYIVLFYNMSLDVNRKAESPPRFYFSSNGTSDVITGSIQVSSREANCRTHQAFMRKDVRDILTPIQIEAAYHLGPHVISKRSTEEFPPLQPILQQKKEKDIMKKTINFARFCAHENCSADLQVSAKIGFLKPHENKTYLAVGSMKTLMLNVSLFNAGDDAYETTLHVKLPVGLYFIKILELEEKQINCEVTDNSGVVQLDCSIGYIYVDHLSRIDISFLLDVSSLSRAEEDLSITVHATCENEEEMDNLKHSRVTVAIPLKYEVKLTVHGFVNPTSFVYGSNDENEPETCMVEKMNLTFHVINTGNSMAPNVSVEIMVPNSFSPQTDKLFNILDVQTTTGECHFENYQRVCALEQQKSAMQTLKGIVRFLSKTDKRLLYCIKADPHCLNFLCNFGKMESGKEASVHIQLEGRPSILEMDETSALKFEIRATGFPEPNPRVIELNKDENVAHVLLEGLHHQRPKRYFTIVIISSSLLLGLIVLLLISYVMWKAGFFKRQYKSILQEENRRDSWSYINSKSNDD
# Sequence (P05556 21-798): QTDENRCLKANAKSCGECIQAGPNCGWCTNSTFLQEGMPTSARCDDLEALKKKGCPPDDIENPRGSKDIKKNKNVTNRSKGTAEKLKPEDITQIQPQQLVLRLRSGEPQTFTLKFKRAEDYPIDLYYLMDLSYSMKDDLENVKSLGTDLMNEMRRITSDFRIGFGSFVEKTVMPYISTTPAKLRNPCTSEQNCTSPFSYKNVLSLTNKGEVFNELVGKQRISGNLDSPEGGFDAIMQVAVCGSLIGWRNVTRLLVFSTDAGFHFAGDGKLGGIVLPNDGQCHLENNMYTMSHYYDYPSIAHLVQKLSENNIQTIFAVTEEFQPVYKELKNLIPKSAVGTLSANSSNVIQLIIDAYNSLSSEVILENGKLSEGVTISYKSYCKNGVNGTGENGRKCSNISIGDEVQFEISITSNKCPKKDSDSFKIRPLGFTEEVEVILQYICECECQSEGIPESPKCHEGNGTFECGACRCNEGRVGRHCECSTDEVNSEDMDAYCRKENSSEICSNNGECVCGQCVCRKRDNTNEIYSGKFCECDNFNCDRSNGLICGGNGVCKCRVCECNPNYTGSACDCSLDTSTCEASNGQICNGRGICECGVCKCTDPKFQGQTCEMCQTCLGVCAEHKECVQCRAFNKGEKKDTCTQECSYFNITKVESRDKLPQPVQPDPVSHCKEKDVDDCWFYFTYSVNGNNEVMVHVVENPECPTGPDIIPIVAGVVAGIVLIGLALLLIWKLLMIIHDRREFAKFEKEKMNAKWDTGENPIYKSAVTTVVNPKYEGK
# assay explanation: Integrin Adhesion Assay: Protocol 5 (VCAM-coated plate, RPMI-8866 cells with stable LOF mutation of the ITGB7 gene)
# Assay type: cell-based
# experimental context: RPMI-8866 cells with stable LOF mutation of the ITGB7 gene; read-out: Mean IC50 α4β1 KO^b
# Text: Integrin Adhesion Assay Using Genetically Modified Cells Generating Stable Cell Lines with ITGB1 or ITGB7 Knockout (Protocol 4 and Protocol 5) […] To generate an individual clones of cells deficient in either ITGB7 or ITGB1 by limiting dilution assay, the transfected cells were resuspended at 5 cells/mL and seeded in 384 well plates. Outgrowth of clones was monitored using a microscope, and 24 clones were transferred for expansion. […]
endpoint: IC50

Req: If you can, please state the reported IC50 value of "COc1cccc(CN2CCCCC2)c1-c1cccc2c(C[C@H](NC(=O)c3c(C)cc(C4CC(F)(F)C4)cc3F)C(=O)O)cccc12" .
Resp: 0.1 to 1 µM

Req: If you can, please state the reported IC50 value of "O=C(N[C@@H](Cc1cccc2c(-c3cccc4ccncc34)cccc12)C(=O)O)c1c(F)cc(N2CCOC[C@@H]2C(F)(F)F)cc1CN1CCC(F)(F)CC1" .
Resp: > 1 µM

Req: If you can, please state the reported IC50 value of "CN(C)Cc1cccc2c(-c3cccc4c(C[C@H](NC(=O)C5(C(F)(F)F)CCN(C6COC6)CC5)C(=O)O)cccc34)nccc12" .
Resp: > 1 µM

Req: If you can, please state the reported IC50 value of "Cc1cncc(C)c1-c1ccc(F)c(C(=O)N[C@@H](Cc2cccc3c(-c4c(C(F)(F)F)c5ccccc5n(C)c4=O)cccc23)C(=O)O)c1F" .
Resp: > 1 µM

Req: If you can, please state the reported IC50 value of "O=C(O)[C@H](Cc1cccc2c(-c3nccc4ccc(CCCN5CCCCC5)cc34)cccc12)NC(=O)C1(C(F)(F)F)CCN([C@@H]2COCC2(F)F)CC1" .
Resp: > 1 µM

New cases:
Req: If you can, please state the reported IC50 value of "COc1ccc(CN2CCC2)c(OC)c1-c1cccc2c(C[C@H](NC(=O)c3c(C)cccc3F)C(=O)O)cccc12" .
Resp: 0.1 to 1 µM

---

# assayed target: α4β1 integrin (Homo sapiens (Human), UniProt P05556+P13612)
# assay explanation: Integrin Adhesion Assay: Protocol 5 (VCAM-coated plate, RPMI-8866 cells with stable LOF mutation of the ITGB7 gene)
# Format: cell-based
# experimental context: RPMI-8866 cells with stable LOF mutation of the ITGB7 gene; read-out: Mean IC50 α4β1 KO^b
endpoint: IC50

Solved cases below.
Req: Provide value of IC50 for this record tested with α4β1 integrin (Homo sapiens (Human), UniProt P05556+P13612): Cn1c(=O)c(-c2cccc3c(C[C@H](NC(=O)C4(C(F)(F)F)CCN(C5(C(F)(F)F)COC5)CC4)C(=O)O)cccc23)c(C(F)(F)F)c2ccccc21 [Compound 491]
Resp: > 1 µM

Req: Provide value of IC50 for this record tested with α4β1 integrin (Homo sapiens (Human), UniProt P05556+P13612): COc1ccc(CN2CCC(F)(F)C2)c(OC)c1-c1cccc2c(C[C@H](NC(=O)c3c(C)cccc3F)C(=O)O)cccc12 [Compound 597]
Resp: > 1 µM

Req: Provide value of IC50 for this record tested with α4β1 integrin (Homo sapiens (Human), UniProt P05556+P13612): O=C(O)[C@H](Cc1cccc2c(-c3nccc4c(CN5CCOCC5)cccc34)cccc12)NC(=O)C1(C(F)(F)F)CCN(CC(F)(F)F)CC1 [Compound 559]
Resp: > 1 µM

Req: Provide value of IC50 for this record tested with α4β1 integrin (Homo sapiens (Human), UniProt P05556+P13612): Cn1c(=O)c(-c2cccc3c(C[C@H](NC(=O)C4(C(F)(F)F)CCN(C5CCOC(C(F)(F)F)C5)CC4)C(=O)O)cccc23)c(C(F)(F)F)c2ccccc21 (stereo partly drawn) [Compound 514]
Resp: > 1 µM

Record IC50 for all entries; do not skip any.
1. COc1ccc(CN2CCC(F)(F)CC2)c(OC)c1-c1cccc2c(C[C@H](NC(=O)c3c(F)cccc3Cl)C(=O)O)cccc12 [Compound 605]
2. COc1ccc(CN2CCN(C3CCC3)CC2)c(OC)c1-c1cccc2c(C[C@H](NC(=O)c3c(C)cccc3F)C(=O)O)cccc12 [Compound 656]
3. COc1ccc(CN2CCC(F)(F)CC2)c(OC)c1-c1cccc2c(C[C@H](NC(=O)C3(C(F)(F)F)CCN(C4COC4)CC3)C(=O)O)cccc12 [Compound 611]
4. COc1cc(CN2CCCCC2)ccc1-c1cccc2c(C[C@H](NC(=O)c3c(C)cccc3F)C(=O)O)cccc12 [Compound 666]

Resp:
> 1 µM
0.1 to 1 µM
> 1 µM
> 1 µM

// data source = patent US20250313535A1
